Cited source for all entries: paper PMC8541353

protocol notes: Concentration of compound 1 in plasma, striatum and cortex by HPLC-MS (intact and MCAO rats)
Assay type: in vivo
settings: rat, brain, intravenous, intact animals; read-out: Concentration in the brain
attribute measured: concentration at 60 min (ng/g)
Numbers only, in ng/g.

(Q) Quick one: concentration at 60 min of O=C(CN1CC(c2ccccc2)CC1=O)NCCS(=O)(=O)[O-].[K+] (stereo not shown) ?
(A) 300

* * *

protocol notes: Concentration of compound 1 in plasma, striatum and cortex by HPLC-MS (intact and MCAO rats)
Type: in vivo
settings: rat, plasma, iv, intact animals, 60 min after intravenous administration; read-out: Cplasma
Procedure: The calculated data are consistent with the experimental data in intact animals. The concentration of compound 1 was determined in the striatum and frontal cortex by HPLC MS. […] We determined the concentrations of compound 1 using an HPLC MS system. […] Plasma. […] The supernatant was collected and analyzed. […] The electrospray ionization (ESI) source was set in positive ionization mode. Multiple reaction monitoring was used to perform mass spectrometric quantification. […]
attribute measured: concentration at 60 min
A complete answer gives the number and then names the unit.

(Q) Quick one: concentration at 60 min of O=C(CN1CC(c2ccccc2)CC1=O)NCCS(=O)(=O)[O-].[K+] (stereo not shown) [Compound 1] ?
(A) 16100 ng/mL
